B1: glmS ribozyme (parent)
chain: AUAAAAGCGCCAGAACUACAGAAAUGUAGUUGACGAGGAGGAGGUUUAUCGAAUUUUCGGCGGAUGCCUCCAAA

Variants of: B1
Assay: self-cleavage kobs at 160 uM GlcN6P; higher = faster cleavage; RNA array
Details: with glucosamine-6-phosphate
This sample holds only a part of the variants without activity.
Readout kind: self-cleavage kobs at 160 uM GlcN6P

input: Fill in the blank: the reported self-cleavage kobs at 160 uM GlcN6P of `AUAAAAGCGCCAUAACUACAGAAAUGUAGUUGACGAGGAGGAGGUUUAUGGAAUUUUCAGCGGAUGCCUCCAAA` is ____.
output: 0.0002 s⁻¹

input: Fill in the blank: the reported self-cleavage kobs at 160 uM GlcN6P of `AUAAAAACGCCAGAACUACAGAAAUGUAGCUGACGAGGAGGAGGUUUAUCGAAUUUUCGGAGGAUGUCUCCAAA` is ____.
output: < 1e-05 s⁻¹

input: Fill in the blank: the reported self-cleavage kobs at 160 uM GlcN6P of `AUAAAAACGCCAGAACUACAGAAAUGUAGUCGACGAGGAGGAGGUUUAUCGAAUUUUCGUCGGAUGCCUCCAAA` is ____.
output: < 1e-05 s⁻¹

input: Fill in the blank: the reported self-cleavage kobs at 160 uM GlcN6P of `AUAAAAGCGCCAUAUCUACAGAAAUGUAGUUGACGCGGAGGGGGUUUAUCGAAUUUUCCGCGGAUGGCUCCAAA` is ____.
output: < 1e-05 s⁻¹

input: Fill in the blank: the reported self-cleavage kobs at 160 uM GlcN6P of `AUAAAAGCGCCAGAAUUACAGAAAUGUAGUUGACGAGGAGGAGGUUUAUCCAAUUUUCGGCGGAUGCCUCCAAA` is ____.
output: < 1e-05 s⁻¹

input: Fill in the blank: the reported self-cleavage kobs at 160 uM GlcN6P of `AUAAAAGCGCCAGAACUACAGAAAUGUAGUCGACCAGGAGGAGGUUUAUCGAAUUUUCGGCGGAUGCCUCCAAA` is ____.
output: < 1e-05 s⁻¹

input: Fill in the blank: the reported self-cleavage kobs at 160 uM GlcN6P of `AUAAAAGCGCCAGAACUACAGAAAUUUAGUUGACGAGGAGGAGGUUUAUCGGAUUUUCGGCGGAUGCCUCCAAA` is ____.
output: 9.82e-05 s⁻¹

input: Fill in the blank: the reported self-cleavage kobs at 160 uM GlcN6P of `AUAAAAGCGCCCGAACUACAGAAAUGUAGUUGACGAGGAGGAGGUUUAUCGAAUUUUCGGCGCAUCCCUCCAAA` is ____.
output: < 1e-05 s⁻¹

input: Fill in the blank: the reported self-cleavage kobs at 160 uM GlcN6P of `AUAAAAGCGCCAGAACUACAGAAAUGUAGUUUACGAGGAGGAGUUUGAUCGAAUUUUCGGCGGCUGCCUCCAAA` is ____.
output: < 1e-05 s⁻¹

input: Fill in the blank: the reported self-cleavage kobs at 160 uM GlcN6P of `AUAAAAGCGCCAGAACUACAGAAAUGUAGUUGACGCGGAGGAGGUUUAUCGAACUUUCGGCGGAUGCCUCCAAA` is ____.
output: < 1e-05 s⁻¹

input: Fill in the blank: the reported self-cleavage kobs at 160 uM GlcN6P of `AUAAAAGUGCCAGAACUACAGAAAUGUAGUUGACGAGGAGCAGGUUUAUCGAAUUUUCGGCUGAUGCUUCCAAA` is ____.
output: < 1e-05 s⁻¹

input: Fill in the blank: the reported self-cleavage kobs at 160 uM GlcN6P of `AUAAAAGCGUCGGAACUACAGAAAUGUAGUUGACGAGGAGGAGGUUUAUCGAAUUUUCGGCGUAUGCCUCCAAA` is ____.
output: < 1e-05 s⁻¹

input: Fill in the blank: the reported self-cleavage kobs at 160 uM GlcN6P of `AUAAAAGCGCCAGAACUACAGAAAUGUAGCUGACGAGGAGGAGGUUUAUCGAAUUUUUGGCGGAUGGCUCAAAA` is ____.
output: 0.000188 s⁻¹

input: Fill in the blank: the reported self-cleavage kobs at 160 uM GlcN6P of `AUAAAAGGGCCAGAACUACAGAAAUGUAGUUGACGAGAAGGAGGUUUUUCGAAUUUUCGGUGGAUGCCUCCAAA` is ____.
output: < 1e-05 s⁻¹

input: Fill in the blank: the reported self-cleavage kobs at 160 uM GlcN6P of `AUAAAAGCGCCAGAACUACAGAAAUGUAGUUGACGAGGCGGAGGUUUAUCGAAUUUUCGGCGCAUGCCUCCAAA` is ____.
output: < 1e-05 s⁻¹

input: Fill in the blank: the reported self-cleavage kobs at 160 uM GlcN6P of `AUAAAAGCGCCCGAACUACAGAAAUGUAGUUGAUGAGGAGGAGGUUUAUCGAAUUUUCGGCGGAUGCCUCCAAA` is ____.
output: < 1e-05 s⁻¹

input: Fill in the blank: the reported self-cleavage kobs at 160 uM GlcN6P of `AUAAAAGCGUCAGAACUACAGAAAUGUAGUUGACGGGGAGGAGGUCUAUCGAAUUUUCGGCGGAUGCCUCCAAA` is ____.
output: < 1e-05 s⁻¹

input: Fill in the blank: the reported self-cleavage kobs at 160 uM GlcN6P of `AUAAAAGCGACAGAACUACAGAAAUGUAGUUGACGAGGAGGAGGCUUAUCGAAUUUUCGGCGGAUGCCUCCAAA` is ____.
output: < 1e-05 s⁻¹

input: Fill in the blank: the reported self-cleavage kobs at 160 uM GlcN6P of `AUAAAACCGCCAGGACUACAGAAAUGUAGUUGACGAGGAGGAGGUUUAUCGAAUUUUCGGUGGAUGCCUCCAAA` is ____.
output: < 1e-05 s⁻¹

input: Fill in the blank: the reported self-cleavage kobs at 160 uM GlcN6P of `AUAAAAGCGCCAGAACUACAGAAAUGUAGUUGAAGAGGAGAAGGUUUAUCGAAUUUUCGGCGGAUGCCUCUAAA` is ____.
output: < 1e-05 s⁻¹

input: Fill in the blank: the reported self-cleavage kobs at 160 uM GlcN6P of `AUAAAAGCGCCAGUACUACAGAAAUGUAGUUGACGAGGAGGAGGUUGAUCGAAUUUUCGGCGGAUGCGUCCAAA` is ____.
output: 7.2e-05 s⁻¹

input: Fill in the blank: the reported self-cleavage kobs at 160 uM GlcN6P of `AUAAAAGCGCCACAACUACAGAAAUGUAGUUGACGAGGAGGAGGGUUAUCGAAUUAUCGGCGAACGCCUCCAAA` is ____.
output: < 1e-05 s⁻¹
